Value source: patent US20230059136A1

- Test system: IL-1β production in PMA-differentiated THP-1 cells
- METHOD: IL-1β production in PMA-differentiated THP-1 cells stimulated with gramicidin (hTHP-1 assay containing 2% fetal bovine serum)
- Format: cell-based, human
- CONDITIONS USED: Homo sapiens, THP-1, Table B1; 2% fetal bovine serum; class symbols; read-out: hTHP-1 IC50 (Average IC50 of compounds in hTHP-1 assay)
OBSERVATION TYPE: IC50

# annotated cases, reported IC50 shown
INSERT INTO measurements (compound, meas_value) VALUES
  ('CC(C)c1cc(F)cc(C(C)C)c1CC(=O)N=[S@](=O)(NC#N)c1ncc(C(C)(C)O)s1', '0.2 to 1 µM'),
  ('CC(C)c1cc2c(c(C(C)C)c1CC(=O)N=S(=O)(NC#N)c1cc(C(C)(C)O)cs1)COC2 (stereo in doubt) [Example 344]', '0.2 to 1 µM'),
  ('CC(C)c1cc(C#N)c(F)c(C(C)C)c1CC(=O)N=S(N)(=O)c1cc(C(C)(O)CO)n(-c2ccccc2)n1 (centres unmarked)', '1 to 5 µM');

Please give the measured IC50 for this compound: CNCc1ccc(S(N)(=O)=NC(=O)Cc2c(C(C)C)cc(C(F)F)nc2C(C)C)cc1 (single isomer, unassigned) [Example 324]
5 to 30 µM

I'd like to know its IC50. The compound in question is Cc1c2c(cc(C3CC3)c1CC(=O)N=[S@@](N)(=O)c1cnc(C(C)(C)O)s1)CCC2
5 to 30 µM

Quick one: IC50 for CC(C)c1cc2c(cnn2C)c(C(C)C)c1CC(=O)N=[S@@](N)(=O)c1cnc(C(C)(C)O)s1 ?
5 to 30 µM

If you can, please state the reported IC50 value of CC(C)c1cc(F)cc(C(C)C)c1CC(=O)NS(=N)(=O)c1ccc(C(C)(C)O)cc1 (single isomer, unassigned) .
1 to 5 µM

For the compound NS(=O)(=NC(=O)Cc1c2c(cc3c1CCC3)CCC2)c1cnn2c1OCCC2 (single isomer, unassigned) , what IC50 is on record?
5 to 30 µM

Which value of IC50 has been reported for CC(C)c1cc(-c2ccc3ccccc3c2)cc(C(C)C)c1CC(=O)N=[S@@](=O)(NC#N)c1cnc(C(C)(C)O)s1 in the records?
0.2 to 1 µM

// lookup IC50 for CC(C)c1cc2c(c(C(C)C)c1CC(=O)N=S(N)(=O)c1cnc(C(C)(C)O)s1)COC2=O (single isomer, unassigned) [Example 317]
1 to 5 µM

Any idea what its IC50 is? The compound is CNCc1ccc(S(N)(=O)=NC(=O)Cc2c(C(C)C)cc(C(F)F)cc2C(C)C)cc1 (single isomer, unassigned) [Example 330]
1 to 5 µM

Given CCc1cc2c(c(C(C)C)c1CC(=O)N=S(N)(=O)c1cc(C(C)(C)O)cs1)COC2 (single isomer, unassigned) [Example 295] , state its recorded IC50.
0.2 to 1 µM

Tell me the measured IC50 of CC(C)(O)c1ncc(S(N)(=O)=NC(=O)Cc2c3c(cc4c2CC4)CCC3)s1 (centres unmarked) , please.
1 to 5 µM

Tell me the measured IC50 of CC(C)c1cc2c(c(C(C)C)c1CC(=O)N=S(N)(=O)c1sc(CN(C)C)cc1F)COC2 (single isomer, unassigned) [Example 307] , please.
0.2 to 1 µM

====

Recorded IC50 by entry
- Test system: IL-1β production in PMA-differentiated THP-1 cells
- METHOD: hTHP-1 assay containing 10% fetal bovine serum (IL-1β production, gramicidin-stimulated THP-1 cells)
- Format: cell-based, human
- CONDITIONS USED: Homo sapiens, THP-1, read-out: hTHP-1 IC50 in 10% FBS, average IC50

So what's the measured IC50 for this one? CC(C)c1c2c(c3c(c1CC(=O)N=S(N)(=O)c1sc(C(C)(C)O)cc1F)CCC3)COC2 (single isomer, unassigned) [Example 411]
200 to 1000 nM

State the recorded IC50 for this entry: CC(C)c1cccc(C(C)C)c1CC(=O)N=S(N)(=O)c1ccc(CCNC(=O)CCCc2ccccc2)cc1 (centres unmarked) [Compound 409]
200 to 1000 nM

====

Entries and their pIC50 values follow.
- Test system: IL-1β production in PMA-differentiated THP-1 cells
- METHOD: IL-1β production in PMA-differentiated THP-1 cells stimulated with gramicidin (hTHP-1 assay containing 2% fetal bovine serum)
- Assay type: cell-based, human
- CONDITIONS USED: read-out: hTHP-1 IC50 in 2% FBS; average IC50; hTHP-1 assay containing 2% fetal bovine serum
pIC50: −log10 of the molar value.

INSERT INTO assay_data (compound, meas_value) VALUES
  ('CC(C)c1c(CC(=O)N=S(N)(=O)c2sc(C(C)(C)O)cc2F)c2c(c3c1OC(F)(F)O3)CCC2 (racemic) [Example 408]', '6.00 to 6.70'),
  ('CC(C)c1c(CC(=O)N=S(N)(=O)c2sc(C(C)(C)O)cc2F)c2c(c3c1OC(F)(F)O3)CCC2 (racemic) [Example 407]', '4.52 to 5.30'),
  ('CC(C)c1cc2c(c(C(C)C)c1CC(=O)N=S(N)(=O)c1nn(CCO)cc1F)OC(F)(F)O2 (racemic) [Example 406]', '4.52 to 5.30');

Next:
Which pIC50 is reported for this compound? CC(C)c1cc2c(c(C(C)C)c1CC(=O)N=S(N)(=O)c1nn(CCO)cc1F)OC(F)(F)O2 (racemic) [Example 405]
6.00 to 6.70

====

IC50 values for the molecules below.
- Tested on: IL-1β production in PMA-differentiated THP-1 cells
- METHOD: IL-1β production in PMA-differentiated THP-1 cells stimulated with gramicidin (hTHP-1 assay containing 2% fetal bovine serum)
- Assay type: cell-based, human
- CONDITIONS USED: Homo sapiens, THP-1, Table B1; 2% fetal bovine serum; class symbols; read-out: hTHP-1 IC50 (Average IC50 of compounds in hTHP-1 assay)

Known results for molecules:
INSERT INTO results (molecule, meas_value) VALUES
  ('CC(C)c1cc2c(c(C(C)C)c1CC(=O)N=S(N)(=O)c1cccc(C(C)(C)O)c1)COC2 (single isomer, unassigned) [Example 303]', '1000 to 5000 nM'),
  ('CCc1cc2c(c(C(C)C)c1CC(=O)N=S(N)(=O)c1cnc(C(C)(C)O)s1)COC2 (stereo not shown) [Example 260]', '5000 to 30000 nM'),
  ('CCc1cc2c(c(C(C)C)c1CC(=O)N=S(N)(=O)c1sc(C(C)(C)O)cc1F)COC2 (stereo not shown)', '1000 to 5000 nM'),
  ('CC(C)c1nc(-c2cccc(C(F)(F)F)c2)c(F)c(C(C)C)c1CC(=O)N=[S@@](N)(=O)c1cnc(C(C)(C)O)s1', '200 to 1000 nM'),
  ('CC(C)c1cc(-c2ccc3c(c2)OC(F)(F)O3)cc(C(C)C)c1CC(=O)N=S(N)(=O)c1ncc(C(C)(C)O)s1 (stereo not shown)', '40 to 200 nM');

Which IC50 reading was recorded for the molecule CCc1cc2c(c(C(C)C)c1CC(=O)N=S(N)(=O)c1cc(C(C)(C)O)cs1)COC2 (stereo not shown) [Example 245] ?
1000 to 5000 nM

Would you mind telling me what IC50 value was observed for CC(C)c1cc(-c2ccc(Cl)c(Cl)c2)cc(C(C)C)c1CC(=O)N=S(N)(=O)c1ncc(C(C)(C)O)s1 (stereo not shown) ?
200 to 1000 nM

====

- System: IL-1β production in PMA-differentiated THP-1 cells
- METHOD: IL-1β production in PMA-differentiated THP-1 cells stimulated with gramicidin (hTHP-1 assay containing 2% fetal bovine serum)
- Format: cell-based, human
- CONDITIONS USED: Homo sapiens, THP-1, Table B1; 2% fetal bovine serum; class symbols; read-out: hTHP-1 IC50 (Average IC50 of compounds in hTHP-1 assay)
OBSERVATION TYPE: IC50

INSERT INTO assay_data (compound, tested_system, meas_value) VALUES
  ('COCc1cc(C(C)C)c(CC(=O)N=S(N)(=O)c2ncc(C(C)(C)O)s2)c(C(C)C)n1 (single isomer, unassigned) [Example 274]', 'IL-1β production in PMA-differentiated THP-1 cells', '1 to 5 µM');

Endpoint output: IC50 of CC(C)c1cc2c(c(C(C)C)c1CC(=O)N=S(N)(=O)c1cnc(C(C)(C)O)s1)COC2=O (stereo not shown) [Example 256] . Value?
5 to 30 µM

Look up IC50 for this compound: CC(C)(O)c1ncc(S(N)(=O)=NC(=O)Cc2c(C3CC3)cc(F)cc2C(F)(F)F)s1 (stereo not shown) [Example 98]
5 to 30 µM

For CC(C)c1cc(COC2CCCC2)cc(C(C)C)c1CC(=O)N=S(N)(=O)c1cnc(C(C)(O)CO)s1 (stereo not shown) , what is its reported IC50?
0.2 to 1 µM
